experiment.notes: Single-dose PK and bioavailability in dogs
Type: in vivo
settings: male, beagle, dog, plasma; single dose, PO 6 mg/kg/day, M
reported.endpoint: Cmax
Express the reported value numerically, then name its unit.

Exercise: Look at this compound and give its reported Cmax. C[C@]12CC[C@@H]3c4ccc(B(O)O)cc4C[C@@H](CCCCCCCCC[S+]([O-])CCCC(F)(F)C(F)(F)F)[C@H]3[C@@H]1CC[C@@H]2O (stereo partly shown)
Key: 157 ng/mL

---

experiment.notes: 4-week repeat-dose toxicity/TK study in dogs
Assay type: in vivo, beagle dogs
settings: male, beagle, dog, plasma, po, 25 mg/kg/day, day 28, PO 25 mg/kg/day, M
reported.endpoint: AUC(0-t) (ng·h/mL)
Give bare numbers, in ng·h/mL.

Exercise: Look at this compound and give its reported AUC(0-t). C[C@]12CC[C@@H]3c4ccc(B(O)O)cc4C[C@@H](CCCCCCCCC[S+]([O-])CCCC(F)(F)C(F)(F)F)[C@H]3[C@@H]1CC[C@@H]2O (stereo partly shown)
Key: 4330

---

experiment.notes: Bidirectional permeability across Caco-2 cell monolayers
Assay type: in vitro ADME
settings: human; Caco-2, 1 μM
reported.endpoint: Papp B→A at 120 min, 1 μM (×10⁻⁶ cm/s)
Numbers only, in ×10⁻⁶ cm/s.

Exercise: Look at this compound and give its reported Papp B→A at 120 min, 1 μM. C[C@]12CC[C@@H]3c4ccc(B(O)O)cc4C[C@@H](CCCCCCCCC[S+]([O-])CCCC(F)(F)C(F)(F)F)[C@H]3[C@@H]1CC[C@@H]2O (stereo partly shown)
Key: 0.747

---

experiment.notes: Metabolic stability in mouse hepatocytes
Assay type: in vitro ADME
settings: read-out: Estimated In Vitro t1/2
reported.endpoint: half-life at 1 μM (min)
Answers are plain numbers, in min.

Exercise: Look at this molecule and give its reported half-life at 1 μM. C[C@]12CC[C@@H]3c4ccc(B(O)O)cc4C[C@@H](CCCCCCCCC[S+]([O-])CCCC(F)(F)C(F)(F)F)[C@H]3[C@@H]1CC[C@@H]2O (stereo partly shown)
Key: 34.4

---

System: CYP3A4
experiment.notes: CYP induction (enzyme activity) in cryopreserved human hepatocytes, CYP3A4
Format: in vitro ADME
settings: human, plated cryopreserved human hepatocytes, donor one, 0.15 µM
reported.endpoint: fold induction at 72 h, 0.15 µM

Exercise: Look at this molecule and give its reported fold induction at 72 h, 0.15 µM. C[C@]12CC[C@@H]3c4ccc(B(O)O)cc4C[C@@H](CCCCCCCCC[S+]([O-])CCCC(F)(F)C(F)(F)F)[C@H]3[C@@H]1CC[C@@H]2O (stereo partly shown)
Key: 0.774

---

experiment.notes: Bidirectional permeability across Caco-2 cell monolayers
Format: in vitro ADME
settings: human; Caco-2, 15 μM
reported.endpoint: efflux ratio at 120 min, 15 μM
Numbers only.

Exercise: Look at this compound and give its reported efflux ratio at 120 min, 15 μM. C[C@]12CC[C@@H]3c4ccc(B(O)O)cc4C[C@@H](CCCCCCCCC[S+]([O-])CCCC(F)(F)C(F)(F)F)[C@H]3[C@@H]1CC[C@@H]2O (stereo partly shown)
Key: 2.87

---

experiment.notes: 7-day repeated-dose PK in rats
Type: in vivo, Sprague Dawley rats
settings: female, Sprague Dawley, rat, plasma, po, 100 mg/kg/day, day 7, PO 100 mg/kg/day, F
reported.endpoint: AUC(0-t) (ng·h/mL)
Give bare numbers, in ng·h/mL.

Exercise: Look at this molecule and give its reported AUC(0-t). C[C@]12CC[C@@H]3c4ccc(B(O)O)cc4C[C@@H](CCCCCCCCC[S+]([O-])CCCC(F)(F)C(F)(F)F)[C@H]3[C@@H]1CC[C@@H]2O (stereo partly shown)
Key: 20700

---

experiment.notes: Single-dose PK and bioavailability in dogs
Format: in vivo
settings: female, beagle, dog, plasma; single dose, PO 6 mg/kg/day, F
reported.endpoint: AUC(0-t)
Express the reported value numerically, then name its unit.

Exercise: Look at this compound and give its reported AUC(0-t). C[C@]12CC[C@@H]3c4ccc(B(O)O)cc4C[C@@H](CCCCCCCCC[S+]([O-])CCCC(F)(F)C(F)(F)F)[C@H]3[C@@H]1CC[C@@H]2O (stereo partly shown) [ZB716, fulvestrant-3-boronic acid]
Key: 0.872 µg·h/mL

---

experiment.notes: Plasma protein binding by equilibrium dialysis, dog
Type: in vitro ADME
settings: plasma (EDTA-K2 as anticoagulant), pH 7.4, 0.1 μM
reported.endpoint: recovery at 6 h, 0.1 μM

Exercise: Look at this molecule and give its reported recovery at 6 h, 0.1 μM. C[C@]12CC[C@@H]3c4ccc(B(O)O)cc4C[C@@H](CCCCCCCCC[S+]([O-])CCCC(F)(F)C(F)(F)F)[C@H]3[C@@H]1CC[C@@H]2O (stereo partly shown)
Key: < 63.5%

---

experiment.notes: 7-day repeated-dose TK in dogs
Assay type: in vivo
settings: female, beagle, dog, plasma, po, 100 mg/kg/day, day 7, PO 100 mg/kg/day, F
reported.endpoint: Cmax (ng/mL)
Numbers only, in ng/mL.

Exercise: Look at this compound and give its reported Cmax. C[C@]12CC[C@@H]3c4ccc(B(O)O)cc4C[C@@H](CCCCCCCCC[S+]([O-])CCCC(F)(F)C(F)(F)F)[C@H]3[C@@H]1CC[C@@H]2O (stereo partly shown) [ZB716, fulvestrant-3-boronic acid]
Key: 12300

---

experiment.notes: Bidirectional permeability across Caco-2 cell monolayers
Type: in vitro ADME
settings: human, Caco-2, Caco-2, 5 μM; read-out: Recovery B to A
What recovery at 120 min, 5 μM was measured for each of the following?

Below, each entry is followed by its recorded recovery at 120 min, 5 μM result.
- molecule: "C[C@H]1O[C@@H](O[C@H]2[C@@H](O)C[C@H](O[C@H]3[C@@H](O)C[C@H](O[C@H]4CC[C@@]5(C)[C@H](CC[C@@H]6[C@@H]5C[C@@H](O)[C@]5(C)[C@@H](C7=CC(=O)OC7)CC[C@]65O)C4)O[C@@H]3C)O[C@@H]2C)C[C@H](O)[C@@H]1O [Digoxin, digoxin, reference compound]"
  recovery at 120 min, 5 μM: "86%"
- molecule: "Nc1cc(N2CCCCC2)nc(N)[n+]1[O-] [Minoxidil, minoxidil, reference compound]"
  recovery at 120 min, 5 μM: "94.4%"

Exercise: Look at this molecule and give its reported recovery at 120 min, 5 μM. C[C@]12CC[C@@H]3c4ccc(B(O)O)cc4C[C@@H](CCCCCCCCC[S+]([O-])CCCC(F)(F)C(F)(F)F)[C@H]3[C@@H]1CC[C@@H]2O (stereo partly drawn) [ZB716, fulvestrant-3-boronic acid]
Key: 73.7%

---

experiment.notes: Metabolic stability in mouse hepatocytes
Assay type: in vitro ADME
settings: read-out: Scaled-Up Clint
reported.endpoint: CLint scaled at 1 μM (mL/min/kg)
Numbers only, in mL/min/kg.

Exercise: Look at this compound and give its reported CLint scaled at 1 μM. C[C@]12CC[C@@H]3c4ccc(B(O)O)cc4C[C@@H](CCCCCCCCC[S+]([O-])CCCC(F)(F)C(F)(F)F)[C@H]3[C@@H]1CC[C@@H]2O (stereo partly shown) [ZB716, fulvestrant-3-boronic acid]
Key: 476

---

experiment.notes: 7-day repeated-dose PK in rats
Format: in vivo, Sprague Dawley rats
settings: both sexes, Sprague Dawley, rat, plasma, oral, 400 mg/kg/day, day 1 and day 7; read-out: Tmax
reported.endpoint: Tmax

Exercise: Look at this compound and give its reported Tmax. C[C@]12CC[C@@H]3c4ccc(B(O)O)cc4C[C@@H](CCCCCCCCC[S+]([O-])CCCC(F)(F)C(F)(F)F)[C@H]3[C@@H]1CC[C@@H]2O (stereo partly shown)
Key: ≤ 8 h

---

experiment.notes: Metabolic stability in monkey hepatocytes
Format: in vitro ADME
settings: read-out: Estimated In Vitro t1/2
reported.endpoint: half-life at 1 μM (min)
Give bare numbers, in min.

Exercise: Look at this compound and give its reported half-life at 1 μM. C[C@]12CC[C@@H]3c4ccc(B(O)O)cc4C[C@@H](CCCCCCCCC[S+]([O-])CCCC(F)(F)C(F)(F)F)[C@H]3[C@@H]1CC[C@@H]2O (stereo partly shown)
Key: 27.6

---

experiment.notes: Single-dose PK and bioavailability in dogs
Assay type: in vivo
settings: male, beagle, dog, plasma; single dose, PO 30 mg/kg/day, M
reported.endpoint: Cmax

Exercise: Look at this compound and give its reported Cmax. C[C@]12CC[C@@H]3c4ccc(B(O)O)cc4C[C@@H](CCCCCCCCC[S+]([O-])CCCC(F)(F)C(F)(F)F)[C@H]3[C@@H]1CC[C@@H]2O (stereo partly shown)
Key: 988 ng/mL

---

experiment.notes: Single-dose PK and bioavailability in dogs
Assay type: in vivo
settings: female, beagle, dog, plasma; single dose, IV 2 mg/kg/day, F
reported.endpoint: Cmax (ng/mL)
Numbers only, in ng/mL.

Exercise: Look at this compound and give its reported Cmax. C[C@]12CC[C@@H]3c4ccc(B(O)O)cc4C[C@@H](CCCCCCCCC[S+]([O-])CCCC(F)(F)C(F)(F)F)[C@H]3[C@@H]1CC[C@@H]2O (stereo partly shown)
Key: 2710
